Hi there, I'd appreciate the recorded MIC for every entry that follows.
tested on: Micrococcus luteus NCIMB 8166; assay: MIC, in vitro micro diffusion method; type: cell-based; conditions: NCIMB8166, M. luteus NCIMB 8166
Record the result as number plus unit.

**Query** Identify the reported MIC for the following entry. O=C1NC(=O)[C@]2(N1)[C@@H](c1ccccc1O)[C@H](c1ccccc1)N[C@@]21C(=O)Nc2ccc(Cl)cc21 (stereo in doubt) [4m]
**Result** 93.8 µg/mL

**Query** Identify the reported MIC for the following entry. O=C1NC(=O)[C@]2(N1)[C@@H](c1ccc(Br)cc1)[C@H](c1ccccc1)N[C@@]21C(=O)N(Cc2ccccc2)c2ccccc21 (racemic) [4g]
**Result** 93.8 µg/mL

**Query** Identify the reported MIC for the following entry. CN(C)[C@@H]1C(O)=C(C(N)=O)C(=O)[C@@]2(O)C(O)=C3C(=O)c4c(O)cccc4[C@@](C)(O)[C@H]3C[C@@H]12 [Tetracycline, reference compound]
**Result** 500 µg/mL

**Query** Identify the reported MIC for the following entry. O=C1NC(=O)[C@]2(N1)[C@@H](c1ccc(Cl)cc1)[C@H](c1ccccc1)N[C@@]21C(=O)Nc2ccc(Br)cc21 (racemic) [4h]
**Result** 93.8 µg/mL

**Query** Identify the reported MIC for the following entry. COc1ccc([C@H]2[C@H](c3ccccc3)N[C@@]3(C(=O)Nc4ccc(Cl)cc43)[C@@]23NC(=O)NC3=O)cc1 (racemic) [4c]
**Result** 93.8 µg/mL
